Tested on: rodent lifetime carcinogenesis bioassay, tumor incidence TD50
Test: carcinogenic potency in animals, long-term in vivo studies, CPDB compilation (AID 1745844)
Conditions: rat; strain ACI; males; in feed; site: colorectum; lesion: squamous-cell carcinoma; dosed 68 weeks; study length 68 weeks
OBSERVED_PROPERTY: TD50

Item under review: `CCOC(=O)c1ccc(N)cc1` . Reported TD50?
2050 mg/kg/day

====

Tested on: rodent lifetime carcinogenesis bioassay, tumor incidence TD50
Experiment: carcinogenic potency in animals, long-term in vivo studies, CPDB compilation (AID 1745844)
Settings: rat; strain Osborne-Mendel; both sexes; in feed; site: any site (literature study); lesion: malignant tumor; dosed 104 weeks; study length 104 weeks
Activity calls are given as the source filed them. The rule behind the calls is not given here.
OBSERVED_PROPERTY: TD50

SMILES_NOTATION	TD50
Cc1cc(C)c(N=Nc2c(O)c(S(=O)(=O)O)cc3cc(S(=O)(=O)O)ccc23)cc1C	12900 mg/kg/day

Below: the item to evaluate.
What does the record list as TD50 for `O=[As]O` ?
626 mg/kg/day (inactive)

====

Tested on: rodent lifetime carcinogenesis bioassay, tumor incidence TD50
Experiment: carcinogenic potency in animals, long-term in vivo studies, CPDB compilation (AID 1745844)
Details: rat; strain Fischer 344; males; by gavage; site: palate + tongue; lesion: squamous-cell carcinoma; dosed 94 weeks; study length 104 weeks
OBSERVED_PROPERTY: TD50

Requested field: TD50. Item: `ClCC(Cl)CCl`
8.65 mg/kg/day

====

Tested on: rodent lifetime carcinogenesis bioassay, tumor incidence TD50
Experiment: carcinogenic potency in animals, long-term in vivo studies, CPDB compilation (AID 1745844)
Details: mouse; strain Slc:ddY; males; in feed; site: any site (literature study); lesion: several types; types named in the paper; dosed 78 weeks; study length 78 weeks
OBSERVED_PROPERTY: TD50

Consider the molecule `O=P(OCCCl)(OCCCl)OCCCl` and give its measured TD50.
185 mg/kg/day

====

Test system: rodent lifetime carcinogenesis bioassay, tumor incidence TD50
Assay: carcinogenic potency in animals, long-term in vivo studies, CPDB compilation (AID 1745844)
Details: mouse; strain Charles River CD1; males; in feed; site: urinary bladder; lesion: spindle-cell tumor; dosed 40 weeks; study length 77 weeks
OBSERVED_PROPERTY: TD50

Field request: TD50 | item: `O=CNc1nc(-c2ccc([N+](=O)[O-])o2)cs1`
97.1 mg/kg/day

====

System: rodent lifetime carcinogenesis bioassay, tumor incidence TD50
Experiment: carcinogenic potency in animals, long-term in vivo studies, CPDB compilation (AID 1745844)
Settings: rat; strain Sprague-Dawley; males; by gavage; site: forestomach; lesion: squamous-cell carcinoma, in situ; dosed 52 weeks; study length 156 weeks
OBSERVED_PROPERTY: TD50

Tell me the measured TD50 of c1ccc(C2CO2)cc1 (stereo unspecified) , please.
140 mg/kg/day

====

Test system: rodent lifetime carcinogenesis bioassay, tumor incidence TD50
Assay: carcinogenic potency in animals, long-term in vivo studies, CPDB compilation (AID 1745844)
Settings: rat; strain Fischer 344; females; inhaled; site: urinary bladder; lesion: transitional-cell carcinoma; dosed 104 weeks; study length 104 weeks
OBSERVED_PROPERTY: TD50 (mg/kg/day)
The response must be a number in mg/kg/day with no trailing unit.

Please report the recorded TD50 for `C=CC(=C)Cl` .
467

====

Tested on: rodent lifetime carcinogenesis bioassay, tumor incidence TD50
Test: carcinogenic potency in animals, long-term in vivo studies, CPDB compilation (AID 1745844)
Conditions: mouse; strain B6C3F1; females; i.p.; site: uterus; lesion: adenocarcinoma, NOS; dosed 52 weeks; study length 80 weeks
OBSERVED_PROPERTY: TD50

Please give the measured TD50 for this compound: `CNNCc1ccc(C(=O)NC(C)C)cc1`
0.411 mg/kg/day

====

System: rodent lifetime carcinogenesis bioassay, tumor incidence TD50
Assay: carcinogenic potency in animals, long-term in vivo studies, CPDB compilation (AID 1745844)
Conditions: mouse; strain CF-1; males; in feed; site: lung; lesion: adenoma; dosed 120 weeks; study length 134 weeks
Calls of active or inactive are those of the source. No rule for the calls is given here.
OBSERVED_PROPERTY: TD50

Dear colleague, I am looking for the recorded TD50 of the following compound: `ClC1=C(Cl)[C@]2(Cl)[C@@H]3[C@@H]4C[C@@H]([C@H]5O[C@@H]45)[C@@H]3[C@@]1(Cl)C2(Cl)Cl`
2.13 mg/kg/day (inactive)

====

System: rodent lifetime carcinogenesis bioassay, tumor incidence TD50
Test: carcinogenic potency in animals, long-term in vivo studies, CPDB compilation (AID 1745844)
Conditions: rat; strain Fischer 344; males; in feed; site: lung; lesion: alveolar/bronchiolar adenoma + alveolar/bronchiolar carcinoma; dosed 104 weeks; study length 105 weeks
OBSERVED_PROPERTY: TD50

Requested field: TD50. Item: `OCC(CO)(CBr)CBr`
729 mg/kg/day

====

We begin with a simple list: items and their reported TD50.
Test system: rodent lifetime carcinogenesis bioassay, tumor incidence TD50
Test: carcinogenic potency in animals, long-term in vivo studies, CPDB compilation (AID 1745844)
Conditions: mouse; strain ddNi; males; in feed; site: liver; lesion: liver-cell carcinoma; dosed 160 weeks; study length 160 weeks

What value of TD50 has been reported for the following compound? `CC[C@@H]1NC(=O)[C@@H]2[C@H](Cl)[C@H](Cl)CN2C(=O)[C@H](CO)NC(=O)C[C@H](c2ccccc2)NC(=O)[C@H](CO)NC1=O`
98.9 mg/kg/day

Requested read-out: TD50. Entry: Cc1cc(O)c2c(c1O)C(=O)C13C(=C2O)C(=O)C2C(O)C1C1C(O)C3C(=O)C3=C(O)c4c(O)cc(C)c(O)c4C(=O)C321 (configuration not stated)
332 mg/kg/day

====

Test system: rodent lifetime carcinogenesis bioassay, tumor incidence TD50
Assay: carcinogenic potency in animals, long-term in vivo studies, CPDB compilation (AID 1745844)
Settings: rat; strain Wistar; females; in feed; site: liver; lesion: hemangioma; dosed 104 weeks; study length 104 weeks
Calls of active or inactive are those of the source. The rule behind the calls is not given here.
OBSERVED_PROPERTY: TD50

SMILES_NOTATION	TD50
C/C=C/C=C/C(=O)O	34000 mg/kg/day (inactive)

Requested read-out: TD50. Entry: `NC1CCCCC1`
1330 mg/kg/day (inactive)

====

Tested on: rodent lifetime carcinogenesis bioassay, tumor incidence TD50
Assay: carcinogenic potency in animals, long-term in vivo studies, CPDB compilation (AID 1745844)
Details: mouse; strain B6C3F1; males; in feed; site: liver; lesion: hepatocellular adenoma + hepatocellular carcinoma + neoplastic nodule; dosed 94 weeks; study length 104 weeks
OBSERVED_PROPERTY: TD50 (mg/kg/day)
Answer with a number only, understood to be in mg/kg/day.

Lookup: TD50 / rodent lifetime carcinogenesis bioassay, tumor incidence TD50 / `CCNC(=O)Nc1ncc([N+](=O)[O-])s1`
758

====

Tested on: rodent lifetime carcinogenesis bioassay, tumor incidence TD50
Assay: carcinogenic potency in animals, long-term in vivo studies, CPDB compilation (AID 1745844)
Conditions: rat; strain Sprague-Dawley; males; inhaled; site: Zymbal's gland; lesion: papilloma; dosed 76 weeks; study length 103 weeks
OBSERVED_PROPERTY: TD50 (mg/kg/day)
Expressed in mg/kg/day, but write only the number.

What reported TD50 corresponds to `C=CBr` on rodent lifetime carcinogenesis bioassay, tumor incidence TD50?
2760

====

Reported TD50 by item:
System: rodent lifetime carcinogenesis bioassay, tumor incidence TD50
Test: carcinogenic potency in animals, long-term in vivo studies, CPDB compilation (AID 1745844)
Conditions: mouse; strain Swiss; females; i.p.; site: all sites; lesion: lymphosarcoma; dosed 26 weeks; study length 78 weeks

SMILES_NOTATION	TD50
O[C@@H]([C@H](O)[C@H](O)CBr)[C@H](O)CBr	38.4 mg/kg/day

Look up TD50 for this compound: `O[C@H]([C@H](O)[C@@H](O)CBr)[C@H](O)CBr`
12.2 mg/kg/day

====

System: rodent lifetime carcinogenesis bioassay, tumor incidence TD50
Test: carcinogenic potency in animals, long-term in vivo studies, CPDB compilation (AID 1745844)
Details: rat; strain Fischer 344; females; in feed; site: liver; lesion: hepatocellular carcinoma; dosed 104 weeks; study length 130 weeks
OBSERVED_PROPERTY: TD50 (mg/kg/day)
I only need the number, in mg/kg/day, no unit after it.

What does the data say about its TD50? Entry: `O=NO`
516

====

System: rodent lifetime carcinogenesis bioassay, tumor incidence TD50
Assay: carcinogenic potency in animals, long-term in vivo studies, CPDB compilation (AID 1745844)
Conditions: mouse; strain B6C3F1; females; by gavage; site: any site (literature study); lesion: several types; types named in the paper; dosed 104 weeks; study length 105 weeks
OBSERVED_PROPERTY: TD50
Answer by giving the amount and then stating its unit.

Could you share what TD50 was measured for `c1ccoc1` , tested on rodent lifetime carcinogenesis bioassay, tumor incidence TD50?
2.81 mg/kg/day

Form field: TD50 recorded for `Nc1ccc(NCCO)c([N+](=O)[O-])c1` with rodent lifetime carcinogenesis bioassay, tumor incidence TD50 (enter value)
292 mg/kg/day

Source listed as PubChem BioAssay AID1745844.
